Target: CARM1 N265Y (Homo sapiens, UniProt Q86X55, N265Y)
Assay: ITC with CARM1 N265Y mutant
pKd: −log10 of the molar value.
Here the recorded pKd is given for each entry.
endpoint: pKd

# compound, reported_measurement
rows = [
    ("Nc1ncnc2c1ncn2[C@@H]1O[C@H](CN(CCCNc2ccccn2)CC[C@H](N)C(=O)O)[C@@H](O)[C@H]1O [Inhibitor 10]", 3.84),
    ("NCCCN(CCCNc1ncccn1)C[C@H]1O[C@@H](n2cnc3c(N)ncnc32)[C@H](O)[C@@H]1O [Inhibitor 8]", 5.29),
    ("NCCCN(CCCNc1ccccn1)C[C@H]1O[C@@H](n2cnc3c(N)ncnc32)[C@H](O)[C@@H]1O [Inhibitor 9]", 5.49),
]

====

Biological target: CARM1 N161E (Homo sapiens, UniProt Q86X55, N161E)
Assay: ITC with CARM1 N161E mutant
Conditions: ITC

# molecule, N ± standard error, CARM1 N161E
records = [
    ("Nc1ncnc2c1ncn2[C@@H]1O[C@H](CSCC[C@H](N)C(=O)O)[C@@H](O)[C@H]1O [SAH, S-Adenosylhomocysteine, reference compound]", "0.692 ± 0.0047"),
    ("Nc1ncnc2c1ncn2[C@@H]1O[C@H](CN(CCCNc2ccccn2)CC[C@H](N)C(=O)O)[C@@H](O)[C@H]1O [Inhibitor 10]", "1.02 ± 0.004"),
    ("NCCCN(CCCNc1ncccn1)C[C@H]1O[C@@H](n2cnc3c(N)ncnc32)[C@H](O)[C@@H]1O [Inhibitor 8]", "0.745 ± 0.012"),
    ("NCCCN(CCCNc1ccccn1)C[C@H]1O[C@@H](n2cnc3c(N)ncnc32)[C@H](O)[C@@H]1O [Inhibitor 9]", "0.914 ± 0.005"),
]

====

Molecular target: PRMT1_22–361 (Homo sapiens)
Sequence (Q99873 32-371): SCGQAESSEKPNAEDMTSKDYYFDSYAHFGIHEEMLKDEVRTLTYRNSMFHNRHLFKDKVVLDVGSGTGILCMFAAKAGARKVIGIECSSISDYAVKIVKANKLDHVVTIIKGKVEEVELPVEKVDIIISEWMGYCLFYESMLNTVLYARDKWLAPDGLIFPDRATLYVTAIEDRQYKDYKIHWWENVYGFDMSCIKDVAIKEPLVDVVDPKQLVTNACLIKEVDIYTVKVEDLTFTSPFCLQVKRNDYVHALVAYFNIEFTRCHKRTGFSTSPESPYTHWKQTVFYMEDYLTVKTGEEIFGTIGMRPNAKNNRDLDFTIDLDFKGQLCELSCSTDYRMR
pIC50: −log10 of the molar value.

# structure_smiles_string, pIC50
data = [
    ("N=C(N)NCCCN(CCCN)C[C@H]1O[C@@H](n2cnc3c(N)ncnc32)[C@H](O)[C@@H]1O", 5.14),
]

====

Molecular target: human CARM1 (CARM1_135–479) (Homo sapiens, UniProt Q86X55)
Test: Isothermal titration calorimetry (ITC) with CARM1 catalytic domain
Type: binding
Conditions: ITC; calculated indirectly
Catalogue of -T∆S, CARM1 readings, one per entry.

# compound, -T∆S, CARM1 (kJ/mol)
records = [
    ("N=C(N)NCCCCCN(CC[C@H](N)C(=O)O)C[C@H]1O[C@@H](n2cnc3c(N)ncnc32)[C@H](O)[C@@H]1O [Inhibitor 7]", 52.5),
    ("NCCCN(CCCNc1ncccn1)C[C@H]1O[C@@H](n2cnc3c(N)ncnc32)[C@H](O)[C@@H]1O [Inhibitor 8]", 92.2),
    ("Nc1ncnc2c1ncn2[C@@H]1O[C@H](CN(CCCNc2ccccn2)CC[C@H](N)C(=O)O)[C@@H](O)[C@H]1O [Inhibitor 10]", 39.1),
    ("NCCCN(CCCNc1ccccn1)C[C@H]1O[C@@H](n2cnc3c(N)ncnc32)[C@H](O)[C@@H]1O [Inhibitor 9]", 52.3),
    ("Nc1ncnc2c1ncn2[C@@H]1O[C@H](CSCC[C@H](N)C(=O)O)[C@@H](O)[C@H]1O [SAH, S-Adenosylhomocysteine, reference compound]", 113),
    ("N=C(N)NCCCN(CCCN)C[C@H]1O[C@@H](n2cnc3c(N)ncnc32)[C@H](O)[C@@H]1O [Inhibitor 4]", 71.9),
]

====

# ∆G, CARM1 values compiled below
Target: human CARM1 (CARM1_135–479) (Homo sapiens)
Assay: Isothermal titration calorimetry (ITC) with CARM1 catalytic domain
Assay type: binding
Settings: ITC; calculated indirectly from best-fit Kd and ∆H

# structure_smiles_string, measurement_units, ∆G, CARM1
data = [
    ("NCCCN(CCCNc1ncccn1)C[C@H]1O[C@@H](n2cnc3c(N)ncnc32)[C@H](O)[C@@H]1O", "kcal/mol", -7.7),
    ("NCCCN(CCCNc1ccccn1)C[C@H]1O[C@@H](n2cnc3c(N)ncnc32)[C@H](O)[C@@H]1O", "kcal/mol", -8.13),
    ("N=C(N)NCCCCCN(CC[C@H](N)C(=O)O)C[C@H]1O[C@@H](n2cnc3c(N)ncnc32)[C@H](O)[C@@H]1O", "kcal/mol", -6.02),
    ("Nc1ncnc2c1ncn2[C@@H]1O[C@H](CN(CCCNc2ccccn2)CC[C@H](N)C(=O)O)[C@@H](O)[C@H]1O", "kcal/mol", -8.13),
    ("N=C(N)NCCCN(CCCN)C[C@H]1O[C@@H](n2cnc3c(N)ncnc32)[C@H](O)[C@@H]1O", "kcal/mol", -7.48),
]

====

Target: CARM1 N161E (Homo sapiens, UniProt Q86X55, N161E)
Sequence (Q86X55 135-479 N161E): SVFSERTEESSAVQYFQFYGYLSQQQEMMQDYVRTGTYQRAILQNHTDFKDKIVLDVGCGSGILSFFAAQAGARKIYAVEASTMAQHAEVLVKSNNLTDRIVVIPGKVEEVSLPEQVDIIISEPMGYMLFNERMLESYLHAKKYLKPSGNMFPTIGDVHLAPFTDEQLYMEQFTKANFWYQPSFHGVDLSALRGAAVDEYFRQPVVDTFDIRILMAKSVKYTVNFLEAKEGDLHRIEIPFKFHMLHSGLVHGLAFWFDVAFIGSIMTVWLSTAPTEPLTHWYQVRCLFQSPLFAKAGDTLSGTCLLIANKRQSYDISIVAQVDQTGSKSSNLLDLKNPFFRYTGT
Experiment: ITC with CARM1 N161E mutant
Conditions: ITC; calculated indirectly
endpoint: ∆G, CARM1 N161E (kJ/mol)

# molecule, system_under_test, endpoint, reported_measurement
data = [
    ("Nc1ncnc2c1ncn2[C@@H]1O[C@H](CN(CCCNc2ccccn2)CC[C@H](N)C(=O)O)[C@@H](O)[C@H]1O [Inhibitor 10]", "CARM1 N161E (Homo sapiens, UniProt Q86X55, N161E)", "∆G, CARM1 N161E", -38.5),
    ("NCCCN(CCCNc1ncccn1)C[C@H]1O[C@@H](n2cnc3c(N)ncnc32)[C@H](O)[C@@H]1O [Inhibitor 8]", "CARM1 N161E (Homo sapiens, UniProt Q86X55, N161E)", "∆G, CARM1 N161E", -34),
    ("Nc1ncnc2c1ncn2[C@@H]1O[C@H](CSCC[C@H](N)C(=O)O)[C@@H](O)[C@H]1O [SAH, S-Adenosylhomocysteine, reference compound]", "CARM1 N161E (Homo sapiens, UniProt Q86X55, N161E)", "∆G, CARM1 N161E", -39.3),
    ("NCCCN(CCCNc1ccccn1)C[C@H]1O[C@@H](n2cnc3c(N)ncnc32)[C@H](O)[C@@H]1O [Inhibitor 9]", "CARM1 N161E (Homo sapiens, UniProt Q86X55, N161E)", "∆G, CARM1 N161E", -36.8),
]

====

Target: CARM1 N161E (Homo sapiens, UniProt Q86X55, N161E)
Sequence (Q86X55 135-479 N161E): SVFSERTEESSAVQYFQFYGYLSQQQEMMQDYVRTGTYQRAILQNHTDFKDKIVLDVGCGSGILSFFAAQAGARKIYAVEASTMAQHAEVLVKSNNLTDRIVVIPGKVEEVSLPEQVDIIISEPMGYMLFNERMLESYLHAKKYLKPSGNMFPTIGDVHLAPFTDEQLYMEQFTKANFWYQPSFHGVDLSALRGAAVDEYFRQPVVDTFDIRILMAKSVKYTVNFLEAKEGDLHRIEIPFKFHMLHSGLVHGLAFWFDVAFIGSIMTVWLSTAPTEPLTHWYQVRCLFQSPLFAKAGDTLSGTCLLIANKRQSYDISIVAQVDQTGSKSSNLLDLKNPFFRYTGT
Experiment: ITC with CARM1 N161E mutant
Conditions: ITC
endpoint: ∆H ± standard error, CARM1 N161E

# molecule, system_under_test, reported_measurement
records = [
    ("Nc1ncnc2c1ncn2[C@@H]1O[C@H](CN(CCCNc2ccccn2)CC[C@H](N)C(=O)O)[C@@H](O)[C@H]1O", "CARM1 N161E (Homo sapiens, UniProt Q86X55, N161E)", "-94.1 ± 0.971 kJ/mol"),
    ("NCCCN(CCCNc1ccccn1)C[C@H]1O[C@@H](n2cnc3c(N)ncnc32)[C@H](O)[C@@H]1O", "CARM1 N161E (Homo sapiens, UniProt Q86X55, N161E)", "-86.7 ± 1.17 kJ/mol"),
    ("Nc1ncnc2c1ncn2[C@@H]1O[C@H](CSCC[C@H](N)C(=O)O)[C@@H](O)[C@H]1O [SAH, S-Adenosylhomocysteine, reference compound]", "CARM1 N161E (Homo sapiens, UniProt Q86X55, N161E)", "-125 ± 1.84 kJ/mol"),
    ("NCCCN(CCCNc1ncccn1)C[C@H]1O[C@@H](n2cnc3c(N)ncnc32)[C@H](O)[C@@H]1O", "CARM1 N161E (Homo sapiens, UniProt Q86X55, N161E)", "-113 ± 3.79 kJ/mol"),
]
